tested_target: human TLR9 (Homo sapiens (Human))
Sequence (Q9NR96 26-1032): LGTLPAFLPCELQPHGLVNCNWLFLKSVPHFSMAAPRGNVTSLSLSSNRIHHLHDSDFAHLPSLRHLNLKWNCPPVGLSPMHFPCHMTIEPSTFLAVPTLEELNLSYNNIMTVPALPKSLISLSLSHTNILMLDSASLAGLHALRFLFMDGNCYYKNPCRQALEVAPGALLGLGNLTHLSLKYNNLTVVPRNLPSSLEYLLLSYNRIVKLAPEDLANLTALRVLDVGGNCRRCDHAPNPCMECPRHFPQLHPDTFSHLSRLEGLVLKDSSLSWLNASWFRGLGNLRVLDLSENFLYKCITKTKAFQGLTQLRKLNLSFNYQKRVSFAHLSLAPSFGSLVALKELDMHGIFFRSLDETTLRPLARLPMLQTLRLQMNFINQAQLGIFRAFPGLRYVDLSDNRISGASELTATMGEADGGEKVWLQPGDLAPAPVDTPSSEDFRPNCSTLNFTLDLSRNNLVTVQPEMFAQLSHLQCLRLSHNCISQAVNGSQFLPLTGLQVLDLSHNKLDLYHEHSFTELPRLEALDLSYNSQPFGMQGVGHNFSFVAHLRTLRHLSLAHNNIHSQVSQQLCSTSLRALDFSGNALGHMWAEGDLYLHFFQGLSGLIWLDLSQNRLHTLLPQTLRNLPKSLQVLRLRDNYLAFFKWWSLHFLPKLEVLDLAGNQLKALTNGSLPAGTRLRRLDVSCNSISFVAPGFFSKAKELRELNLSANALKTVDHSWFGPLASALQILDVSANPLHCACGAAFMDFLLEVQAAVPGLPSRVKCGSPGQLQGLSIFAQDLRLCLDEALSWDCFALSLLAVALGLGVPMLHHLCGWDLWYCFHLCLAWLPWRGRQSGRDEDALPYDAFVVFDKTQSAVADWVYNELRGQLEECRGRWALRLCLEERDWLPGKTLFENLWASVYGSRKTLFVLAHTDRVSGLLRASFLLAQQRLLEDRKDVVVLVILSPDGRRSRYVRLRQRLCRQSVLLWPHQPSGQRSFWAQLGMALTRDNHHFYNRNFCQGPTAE
procedure_text: TLR9 inhibition reporter assay (HEK-Blue SEAP);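 further: SEAP driven by an IFN-β minimal promoter with NF-κB and AP-1 sites, read after 22 h, compounds dosed 0.05 nM–50 µM, inhibition scaled between agonist plus DMSO and reference-inhibitor wells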
test_conditions: read-out: TLR9 IC50; HEK-Blue cells overexpressing human TLR9, ODN2006 5 nM stimulation, SEAP reporter
Label scheme, based on IC50: lower bin: < 1 µM; middle bin: ≥ 1 µM and < 5 µM; upper bin: ≥ 5 µM

1. COc1cc(-c2[nH]c3cc(C)c(C4CCC(NC5CCOC5)CC4)nc3c2C(C)C)cn2ncnc12 (centres unmarked) [Example 328] : lower bin
2. Cc1c(-c2[nH]c3ccc(N4CCN(C(=O)CCN(C)C)CC4)nc3c2C(C)C)cn2ncnc2c1C : upper bin
3. Cc1c(-c2[nH]c3ccc(C4CCC(N(C)C)CC4)nc3c2C(C)C)cn2ncnc2c1C (centres unmarked) [Example 355] : middle bin
4. Cc1c(-c2[nH]c3ccc(N4CCN(C(=O)CNC(C)C)CC4)nc3c2C(C)C)cn2ncnc2c1C : upper bin
5. Cc1c(-c2[nH]c3ccc(N4CCCN(CC(=O)N(C)C)CC4)nc3c2C(C)C)cn2ncnc2c1C : upper bin
6. Cc1c(-c2[nH]c3ccc(N4CC(NCC(=O)N(C)C)C4)nc3c2C(C)C)cn2ncnc2c1C [Example 22] : upper bin
7. Cc1cc(-c2[nH]c3ccc(C4CCC(N5CC6(COC6)C5)CC4)nc3c2C(C)C)cc(C)n1 (centres unmarked) [Example 286] : middle bin
8. Cc1c(-c2[nH]c3ccc(N4CCN(C(=O)CN(C)C)CC4)nc3c2C(C)C)cn2ncnc2c1C : upper bin
9. COCCN(C)C1CCC(c2ccc3[nH]c(-c4cn5ncnc5c(C)c4C)c(C(C)C)c3n2)CC1 (centres unmarked) [Example 389] : lower bin
10. CC(C)c1c(-c2cn(CC#N)c3ncccc23)[nH]c2ccc(C3CCC(NCCS(C)(=O)=O)CC3)nc12 (centres unmarked) [Example 273] : middle bin
11. Cc1c(-c2[nH]c3ccc(N4CC(N)C4)nc3c2C(C)C)cn2ncnc2c1C : middle bin
12. Cc1c(-c2[nH]c3ccc(C4CCC(N5CCC[C@@H]5CO)CC4)nc3c2C(C)C)cn2ncnc2c1C (some centres unmarked) [Example 372] : middle bin
13. CC(C)c1c(-c2cn(CCS(C)(=O)=O)c3ncccc23)[nH]c2ccc(C3CCC(NC4CCCOC4)CC3)nc12 (centres unmarked) : lower bin
14. COc1cc(-c2[nH]c3ccc(C4CCC(NCC5(S(C)(=O)=O)CC5)CC4)nc3c2C(C)C)cn2ncnc12 (centres unmarked) [Example 223] : lower bin
